# system under test: T1, human CD3e/g antigen (ACRO, catalog number CDG-H52W5) (human, UniProt P07766 23-126; P09693 23-116)
# T1 construct: Bought reagent used as the Biacore analyte; also called hCD3e/g
# measurement description: SPR (Biacore 8K), antibody captured via anti-human Fc
measured endpoint: pKd
In textbook form, pKd equals minus log to base ten of the concentration in mol/L.

{"columns": ["binder", "pKd"],
 "data": [
  ["hAb001-27 (antibody, V domains shown, Humanized; constant regions not specified) VH: QVQLVQSGAEVKKPGASVKVSCKASGYSFTNYYMHWVRQAPGQRLEWIGWTYPGNNNIKYNEKFKGRATITADTSASTAYMELSSLRSEDTAVYYCARDGYGYYFFDYWGQGTLVTVSS VL: DIVMTQSPDSLAVSLGERATMSCKSSQSLLNNRTRKNYLAWYQQKPGQPPKLLIYWASTRESGVPDRFSGSGSGTDFTLTISSLQAEDVAVYYCKQSYTLRTFGGGTKLEIK", 7.68],
  ["hAb001-19 (antibody, V domains shown, Humanized; constant regions not specified) VH: QVQLVQSGAEVKKPGASVKVSCKASGYSFTNYYMHWVRQAPGQRLEWMGWTYPGNNNIKYNEKFKGRVTITRDTSASTAYMELSSLRSEDTAVYYCARDGYGYYFFDYWGQGTLVTVSS VL: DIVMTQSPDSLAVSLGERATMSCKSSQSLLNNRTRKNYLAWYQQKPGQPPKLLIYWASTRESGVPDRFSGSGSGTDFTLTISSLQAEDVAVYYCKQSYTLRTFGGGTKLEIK", 7.02]
]}

Let us examine a further case.
IN: For the binder shown here, hAb008-31 (antibody, V domains shown, Humanized; constant regions not specified) VH: QVQLVQSGAEVKKPGASVKVSCKASGYTFTDYTVNWVKQAPGQRLEWIGYINPFNSYTKYNQKFKDRATITADTSASTAYMELSSLRSEDTAVYFCANSVSTYWGQGTTVTVSS VL: DVVMTQSPLSLPVTLGQPASISCKSSQSLLDSDGKTYLNWLLQRPGQSPRRLIQLVSKLNSGVPDRFSGSGSGTDFTLKISRVEAEDVGVFYCWQGTHFPRTFGGGTKLEIK , give the reported pKd.
OUT: 7.82
